Numbers sourced from ChEMBL document CHEMBL1833854.

# Tested on: HCT-116
# PROCEDURE DETAILS: Antiproliferative activity against human HCT116 cells by MTT assay
# Format: functional, cell-based
REPORTED METRIC: IC50 (nM)

Reference set, count: 3
{"columns": ["COMPOUND SMILES", "STUDY TARGET", "REPORTED METRIC", "RECORDED NUMBER"],
 "data": [
  ["O=C(NO)c1cnc(Nc2nnc(-c3ccc(F)cc3)o2)nc1", "HCT-116", "IC50", 60],
  ["CN(C)c1ccc(-c2nnc(Nc3ncc(C(=O)NO)cn3)o2)cc1", "HCT-116", "IC50", 200],
  ["O=C(NO)c1cnc(Nc2nnc(-c3ccc(Cl)cc3)s2)nc1", "HCT-116", "IC50", 160]
]}

P: O=C(NO)c1cnc(Nc2nnc(-c3ccccc3)s2)nc1
Q: CN(C)c1ccc(-c2nnc(Nc3ncc(C(=O)NO)cn3)s2)cc1
Short answer wanted: higher IC50, P or Q ? Indicate your choice by writing its label. Q
(Q: 200 nM, P: 80 nM)

====

Reported inhibition in vivo at 200 µmol/kg values for a set of compounds
# PROCEDURE DETAILS: Antitumor activity against mouse EAC cells transplanted in Swiss albino mouse assessed as tumor weight inhibition in ascetic fluid at 0.2 mmol/kg, ip administered qd for 7 days measured on 8th day
# Type: functional
# RUN CONDITIONS: Ehrlich, 168 h, read-out: GI
Kindly answer with a numeric value in %, unit omitted.

Reference set, count: 4
{"columns": ["COMPOUND SMILES", "RECORDED NUMBER"],
 "data": [
  ["CN(C)c1ccc(-c2nnc(Nc3ncc(C(=O)NO)cn3)s2)cc1", 61.1],
  ["O=C(NO)c1cnc(Nc2nnc(-c3ccccc3)s2)nc1", 14.2],
  ["CN(C)c1ccc(-c2nnc(Nc3ncc(C(=O)NO)cn3)o2)cc1", 55.5],
  ["O=C(NO)c1cnc(Nc2nnc(-c3ccc(F)cc3)o2)nc1", 24.1]
]}

Please look at the following compound next.
Quick one: inhibition in vivo at 200 µmol/kg for O=C(NO)c1cnc(Nc2nnc(-c3ccc(Cl)cc3)s2)nc1 ? 48.3

====

Reported inhibition in vivo at 200 µmol/kg values for a set of compounds
# PROCEDURE DETAILS: Antitumor activity against mouse EAC cells transplanted in Swiss albino mouse assessed as tumor cell inhibition in ascetic fluid at 0.2 mmol/kg, ip administered qd for 7 days measured on 8th day
# Format: functional
# RUN CONDITIONS: Ehrlich, 168 h, read-out: GI
Kindly answer with a numeric value in %, unit omitted.

{"columns": ["COMPOUND SMILES", "REPORTED METRIC", "RECORDED NUMBER"],
 "data": [
  ["O=C(NO)c1cnc(Nc2nnc(-c3ccccc3)s2)nc1", "inhibition in vivo at 200 µmol/kg", 29.5],
  ["CN(C)c1ccc(-c2nnc(Nc3ncc(C(=O)NO)cn3)o2)cc1", "inhibition in vivo at 200 µmol/kg", 56.8],
  ["CN(C)c1ccc(-c2nnc(Nc3ncc(C(=O)NO)cn3)s2)cc1", "inhibition in vivo at 200 µmol/kg", 51.1],
  ["O=C(NO)c1cnc(Nc2nnc(-c3ccc(Cl)cc3)s2)nc1", "inhibition in vivo at 200 µmol/kg", 32]
]}

Please look at the following compound next.
Quick one: inhibition in vivo at 200 µmol/kg for O=C(NO)c1cnc(Nc2nnc(-c3ccc(F)cc3)o2)nc1 ? 16.4
